Target: system Xc^− (Homo sapiens)
Test: [^14C]L-Cystine uptake assay
Type: cell-based
Design: endogenous in cells; host or cells: H4 cells
Details: H4 cells, sodium-free HEPES buffer, 0.5 μM L-[14C]Cystine and 4.5 μM L-Cystine, 1 hour at 37° C.; read-out: pIC50 [^14C] L-Cystine uptake assay (converted)
Property: IC50; scope: individual compounds
READOUT LABEL: IC50

- O=C(CN1C(=O)Cc2ncccc2-c2c1cc(F)nc2F)Nc1ccc(C(F)(F)F)cc1: 100 to 501 nM
- CC1C(=O)N(CC(=O)Nc2ccc(Cl)c(F)c2)c2cc(C(F)F)ncc2-c2cc(F)cnc21 (single isomer, unassigned): < 15.8 nM
- Cc1cc2c(c(Cl)n1)-c1cccnc1C(C)C(=O)N2CC(=O)Nc1ccc(Cl)c(F)c1 (single isomer, unassigned): < 15.8 nM
- C[C@@H]1C(=O)N(CC(=O)Nc2ccc(C(F)F)cc2)c2cc(N3CC[C@@H](F)C3)nc(F)c2-c2cccnc21 (single isomer, unassigned) [#277]: 15.8 to 39.8 nM
- Cc1cc2c(c(F)n1)-c1cnccc1C(C)C(=O)N2CC(=O)Nc1ccc(C(F)F)cc1 (single isomer, unassigned): < 15.8 nM
- CC1C(=O)N(CC(=O)Nc2ccc(Cl)c(F)c2)c2cc(F)cc(F)c2-c2cncnc21 (single isomer, unassigned): 15.8 to 39.8 nM
- COc1nc(C)cc2c1-c1cccnc1CC(=O)N2CC(=O)Nc1ccc(C#N)cc1: 100 to 501 nM
- Cc1cc2c(cn1)-c1ccc(C)nc1CC(=O)N2CC(=O)Nc1ccc(C(F)(F)F)cc1: 100 to 501 nM
- Cc1cc2c(c(C3CC3)n1)-c1ccccc1CC(=O)N2CC(=O)Nc1ccc(C(F)(F)F)cc1: 100 to 501 nM
- Cc1cc2c(cn1)-c1ccc(Cl)cc1CC(=O)N2CC(=O)Nc1ccc(C(F)(F)F)cc1: 39.8 to 100 nM
- Cc1cc2c(c(F)n1)-c1cccnc1[C@@H](C)C(=O)N2CC(=O)Nc1csc(Cl)c1: 39.8 to 100 nM
- Cc1cc2c(c(F)n1)-c1ncc(F)cc1C(C)C(=O)N2CC(=O)Nc1ccc(Cl)c(F)c1 (single isomer, unassigned): 15.8 to 39.8 nM
- Cc1cc2c(c(Cl)n1)-c1cc(F)nn1C(C)C(=O)N2CC(=O)Nc1ccc(C(F)F)cc1 (single isomer, unassigned): < 15.8 nM
- Cc1cc2c(c(C#N)n1)-c1cccnc1CC(=O)N2CC(=O)Nc1ccc(C(F)(F)F)cc1: 15.8 to 39.8 nM
- CC1C(=O)N(CC(=O)Nc2ccc(C(F)F)cc2)c2cc(N3CC(C)(F)C3)nc(F)c2-c2cccnc21 (single isomer, unassigned): < 15.8 nM
- CC1C(=O)N(CC(=O)Nc2ccc(Cl)c(F)c2)c2cc(N(C)CCN(C)C)nc(F)c2-c2cccnc21 (single isomer, unassigned): 15.8 to 39.8 nM
- Cc1cc2c(c(Cl)n1)-c1cc(C)nn1CC(=O)N2CC(=O)Nc1ccc(C(F)(F)F)cc1: 39.8 to 100 nM
- Cc1cc2c(c(Cl)n1)-c1cccnc1C(C)C(=O)N2CC(=O)Nc1ccc(C(F)F)nc1 (single isomer, unassigned): 15.8 to 39.8 nM
- CNc1cc2c(c(Cl)n1)-c1cccnc1CC(=O)N2CC(=O)Nc1ccc(C(F)(F)F)cc1: 15.8 to 39.8 nM
- [2H]C([2H])([2H])[C@H]1C(=O)N(CC(=O)Nc2ccc(C(F)(F)F)cc2)c2cc(C)nc(F)c2-c2cccnc21 (single isomer, unassigned): < 15.8 nM
- Cc1cc2c(c(C)n1)-c1ccccc1CC(=O)N2CC(=O)Nc1ccc(C(F)(F)F)cc1: < 15.8 nM
- Cc1cc2c(c(Cl)n1)-c1cncc(F)c1CC(=O)N2CC(=O)Nc1ccc(C(F)(F)F)cc1: 15.8 to 39.8 nM
- N#Cc1c(F)ccc2c1-c1cccnc1CC(=O)N2CC(=O)Nc1ccc(C(F)(F)F)cc1: 39.8 to 100 nM
- Cc1ccc(NC(=O)CN2C(=O)C(C)c3ccccc3-c3c2cc(C)c(=O)n3C)cc1F (centres unmarked): < 15.8 nM
- COc1nc(C)cc2c1-c1cccnc1CC(=O)N2CC(=O)Nc1ccc(C(F)(F)F)cc1: 15.8 to 39.8 nM
- CC1C(=O)N(CC(=O)Nc2ccc(Cl)c(F)c2)c2cc(Cl)cc(F)c2-c2ncncc21 (single isomer, unassigned): 39.8 to 100 nM
- Cc1cc2c(c(C)n1)-c1cccc(F)c1CC(=O)N2CC(=O)Nc1ccc(C(F)(F)F)cc1: < 15.8 nM
- CC1C(=O)N(CC(=O)Nc2ccc(C(F)F)cc2)c2cc(C#N)cc(F)c2-c2cccnc21 (single isomer, unassigned): 15.8 to 39.8 nM
- Cc1cc2c(c(F)n1)-c1cccnc1[C@@H](C)C(=O)N2CC(=O)Nc1ccc(Br)c(F)c1: < 15.8 nM

----------
Molecular target: system Xc^− (Homo sapiens, UniProt Q9UPY5)
Experiment: [^14C]L-Cystine uptake assay
Format: cell-based
Parameters: endogenous in cells; host or cells: H4 cells
Details: H4 cells, sodium-free HEPES buffer, 0.5 μM L-[14C]Cystine and 4.5 μM L-Cystine, 1 hour at 37° C.
READOUT LABEL: pIC50 [^14C] L-Cystine uptake assay

- O=C(CN1C(=O)Cc2cc(F)ccc2-c2c1ccnc2Cl)Nc1ccc(C(F)(F)F)cc1 (single isomer, unassigned) [#193]: D (plC50 > about 7.80)
- Cc1cc2c(c(C(F)F)n1)-c1ccccc1CC(=O)N2CC(=O)Nc1ccc(C(F)(F)F)cc1 (single isomer, unassigned) [#194]: D (plC50 > about 7.80)
- Cc1cc2c(c(Cl)n1)-c1ccccc1CC(=O)N2CC(=O)Nc1ccc(C(F)(F)F)cc1 (single isomer, unassigned) [#189]: D (plC50 > about 7.80)

----------
Molecular target: system Xc^− (Homo sapiens)
Sequence (Q9UPY5 1-501): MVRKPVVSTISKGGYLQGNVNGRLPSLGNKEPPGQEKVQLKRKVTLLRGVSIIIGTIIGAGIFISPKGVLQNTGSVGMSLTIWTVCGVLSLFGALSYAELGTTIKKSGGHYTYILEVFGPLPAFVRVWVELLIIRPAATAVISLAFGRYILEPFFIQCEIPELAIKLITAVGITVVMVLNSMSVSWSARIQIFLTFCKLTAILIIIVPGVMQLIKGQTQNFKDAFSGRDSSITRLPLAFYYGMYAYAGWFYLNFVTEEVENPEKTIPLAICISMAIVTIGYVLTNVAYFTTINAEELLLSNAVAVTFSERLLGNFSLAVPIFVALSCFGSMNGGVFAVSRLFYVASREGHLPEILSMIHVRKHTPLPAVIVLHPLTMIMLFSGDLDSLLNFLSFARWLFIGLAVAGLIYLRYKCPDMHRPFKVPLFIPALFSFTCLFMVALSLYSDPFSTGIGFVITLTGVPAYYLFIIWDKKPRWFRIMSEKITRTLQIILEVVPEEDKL
Sequence (P08195 1-529 partner): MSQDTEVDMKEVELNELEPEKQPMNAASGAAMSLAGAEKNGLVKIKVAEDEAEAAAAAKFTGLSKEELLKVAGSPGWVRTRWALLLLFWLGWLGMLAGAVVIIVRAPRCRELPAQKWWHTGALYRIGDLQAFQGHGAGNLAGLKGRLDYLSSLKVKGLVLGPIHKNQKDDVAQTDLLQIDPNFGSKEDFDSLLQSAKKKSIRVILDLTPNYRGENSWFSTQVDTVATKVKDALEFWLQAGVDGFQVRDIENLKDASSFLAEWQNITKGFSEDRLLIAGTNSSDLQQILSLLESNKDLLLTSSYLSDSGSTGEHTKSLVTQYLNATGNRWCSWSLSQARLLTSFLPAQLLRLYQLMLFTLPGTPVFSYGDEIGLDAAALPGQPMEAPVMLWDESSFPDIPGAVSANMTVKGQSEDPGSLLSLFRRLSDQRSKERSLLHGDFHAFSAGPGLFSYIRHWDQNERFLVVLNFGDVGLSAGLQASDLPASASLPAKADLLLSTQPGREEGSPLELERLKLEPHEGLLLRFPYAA
Assay: [^14C]L-Cystine uptake assay
Type: cell-based
Parameters: endogenous in cells; host or cells: H4 cells
Conditions: H4 cells, sodium-free HEPES buffer, 0.5 μM L-[14C]Cystine and 4.5 μM L-Cystine, 1 hour at 37° C.; read-out: pIC50 [^14C] L-Cystine uptake assay (converted)
READOUT LABEL: IC50

- Cc1cc2c(c(Cl)n1)-c1cccnc1[C@@H](C)C(=O)N2CC(=O)Nc1ccc(C(F)(F)F)cc1 (single isomer, unassigned): < 15.8 nM
- COc1nc(C)cc2c1-c1cc(C)nn1CC(=O)N2CC(=O)Nc1ccc(C(F)(F)F)cc1: 39.8 to 100 nM
- CC1C(=O)N(CC(=O)Nc2ccc(C(F)(F)F)cc2)c2cc(F)c(=O)n(C)c2-c2cccnc21 (centres unmarked): 39.8 to 100 nM
- COc1cc2c(c(F)n1)-c1cccnc1CC(=O)N2CC(=O)Nc1ccc(C(F)(F)F)cc1: 15.8 to 39.8 nM
- Cc1cc2c(c(F)n1)-c1cccnc1[C@@H](C)C(=O)N2CC(=O)Nc1ccc(Br)cc1: < 15.8 nM
- Cc1cc2c(cc1C)N(CC(=O)Nc1ccc(Cl)c(F)c1)C(=O)Cc1ncccc1-2: 39.8 to 100 nM
- Cc1cc2c(c(F)n1)-c1cc(C)nn1CC(=O)N2CC(=O)Nc1ccc(C(F)(F)F)cc1: 100 to 501 nM
- COc1cc2c(c(F)n1)-c1cccnc1[C@@H](C)C(=O)N2CC(=O)Nc1ccc(C(F)(F)F)cc1 (single isomer, unassigned): 15.8 to 39.8 nM
- Cc1cc2c(c(F)n1)-c1cccnc1[C@@H](C)C(=O)N2CC(=O)Nc1ccc(C(F)(F)F)cc1 (single isomer, unassigned): < 15.8 nM
- CCn1c2c(cc(C)c1=O)N(CC(=O)Nc1ccc(Cl)c(F)c1)C(=O)C(C)c1ccccc1-2 (centres unmarked): < 15.8 nM
- Cc1cc2c(c(F)n1)-c1cncc(F)c1C(C)C(=O)N2CC(=O)Nc1ccc(C(F)(F)F)cc1 (centres unmarked): 15.8 to 39.8 nM
- Cc1cc2c(c(F)n1)-c1cc[nH]c(=O)c1CC(=O)N2CC(=O)Nc1ccc(C(F)(F)F)cc1: 39.8 to 100 nM
- Cc1cc2c(cn1)-c1cccnc1C(C)C(=O)N2CC(=O)Nc1ccc(F)c(Cl)c1 (single isomer, unassigned): 39.8 to 100 nM
- Cc1cc2c(c(=O)n1C)-c1ccc(Cl)cc1C(C)C(=O)N2CC(=O)Nc1ccc(Cl)c(F)c1 (centres unmarked): < 15.8 nM
- Cc1cc2c(c(Cl)n1)-c1cccnc1N(C)C(=O)N2CC(=O)Nc1ccc(C(F)(F)F)cc1: < 15.8 nM
- Cc1cc2c(c(F)n1)-c1cc(F)cnc1C(C)C(=O)N2CC(=O)Nc1ccc(C(F)(F)F)nc1 (single isomer, unassigned): 15.8 to 39.8 nM
- Cc1cc2c(cn1)-c1cc(F)ccc1CC(=O)N2CC(=O)Nc1ccc(C(F)(F)F)cc1: 15.8 to 39.8 nM
- Cc1cc2c(c(C(F)F)n1)-c1ccccc1CC(=O)N2CC(=O)Nc1ccc(C(F)(F)F)cc1: 39.8 to 100 nM
- Cc1cc2c(c(F)n1)-c1cccnc1[C@@H](C)C(=O)N2CC(=O)Nc1ccc(I)cc1: < 15.8 nM
- Cc1cc(F)c2c(c1)N(CC(=O)Nc1ccc(C(F)F)cc1)C(=O)C(C)c1ncncc1-2 (centres unmarked): 39.8 to 100 nM
- Cc1c2c(cc(=O)n1C)N(CC(=O)Nc1ccc(Cl)c(F)c1)C(=O)C(C)c1ccccc1-2 (centres unmarked): 39.8 to 100 nM
- CC1C(=O)N(CC(=O)Nc2ccc(Cl)c(F)c2)c2cc(N3CC4(C3)CC4(F)F)nc(F)c2-c2cccnc21 (single isomer, unassigned): 39.8 to 100 nM
- O=C(CN1C(=O)Cc2ccccc2-c2cnc(N3CC(F)(F)C3)cc21)Nc1ccc(C(F)(F)F)cc1: 15.8 to 39.8 nM
- O=C(CN1C(=O)Cc2ncccc2-c2c1cc(Cl)nc2Cl)Nc1ccc(C(F)(F)F)cc1: 15.8 to 39.8 nM
- C[C@@H]1C(=O)N(CC(=O)Nc2ccc(C(F)F)cc2)c2cc(N3CC[C@@H](F)C3)nc(F)c2-c2cccnc21 (single isomer, unassigned) [#276]: < 15.8 nM
- COc1nc(OC(F)F)cc2c1-c1cccnc1C(C)C(=O)N2CC(=O)Nc1ccc(C(F)F)cc1 (single isomer, unassigned) [#329]: 15.8 to 39.8 nM
- CC1C(=O)N(CC(=O)Nc2ccc(C(F)F)cc2)c2cc(N3CC4(C3)CC4(F)F)nc(F)c2-c2cccnc21 (single isomer, unassigned): < 15.8 nM
- CC1C(=O)N(CC(=O)Nc2ccc(C(F)F)cc2)c2cc(N3CC[C@@H]3CO)nc(F)c2-c2cccnc21 (some centres unmarked): < 15.8 nM
- CC1C(=O)N(CC(=O)Nc2ccc(Cl)c(F)c2)c2cc(C(F)F)ncc2-c2cccnc21 (single isomer, unassigned): < 15.8 nM
